experimental protocol: Observed AUC (0 to infinity) in BALB/c mouse at 16 mg/kg, iv measured upto 24 hrs by HPLC-MS analysis
Format: ADME, organism-based
Design: route intravenous, dose 16 mg/kg, time <=24
test parameters: in vivo
measured attribute: AUC(0-inf) (ng·h/mL)
Number in ng·h/mL, nothing else.

Check the records and state AUC(0-inf) for CC(C)CCc1cn(-c2ccc(NC(=O)Nc3cccc4cnccc34)cc2)nn1
25700

----------
Can you tell me Papp at 5 h for the items I'm about to list?
experimental protocol: Apparent permeability of compound incubated for 5 hrs by PAMPA assay
Assay type: ADME
Number in ×10⁻⁶ cm/s, nothing else.

Check the records and state Papp at 5 h for CCCCc1cn(-c2ccc(NC(=O)Nc3cc(OC4CCCC4)ccc3C)cc2)nn1
1.96

Check the records and state Papp at 5 h for CCOC(=O)CCc1cn(-c2ccc(NC(=O)Nc3ccccc3C(F)(F)F)cc2)nn1
1.56

Check the records and state Papp at 5 h for CCCCc1cn(-c2ccc(NC(=O)Nc3cc(OP(=O)(OCC)OCC)ccc3C)cc2)nn1
0.68

Check the records and state Papp at 5 h for CC(C)CC(=O)OCCc1cn(-c2ccc(NC(=O)Nc3ccccc3C(F)(F)F)cc2)nn1
4.24

Check the records and state Papp at 5 h for CC(C)CCc1cn(-c2ccc(NC(=O)Nc3cccc4cnccc34)cc2)nn1
0.18

Check the records and state Papp at 5 h for CCOP(=O)(OCC)OCCc1cn(-c2ccc(NC(=O)Nc3ccccc3C)cc2)nn1
0.72
